Experiment: Pharmacokinetics from brain levels after i.p. administration to rats
Format: in vivo, rat
Settings: rat, ip; brain, rats, i.p. 80 mg/kg, mean; read-out: Vss/F
ENDPOINT LABEL: Vd/F (L/kg)
Just the number in L/kg, nothing appended.

The compound CCC(C)CCOC(=O)Nc1ccc(S(N)(=O)=O)cc1 (racemic) [MSPC (racemate)] showed Vd/F equal to 1

###

Test: Pharmacokinetics from plasma levels after i.p. administration to rats
Assay type: in vivo, rat
Settings: rat, plasma, ip, 80 mg/kg, plasma, i.p. 80 mg/kg, mean, read-out: CL/F (converted)
ENDPOINT LABEL: CL/F (mL/min/kg)
Your answer should be a plain number; it is taken to be in mL/min/kg.

Value of CL/F reported for the molecule CC[C@H](C)CCOC(=O)Nc1ccc(S(N)(=O)=O)cc1 [(S)-MSPC] is 11.7

Data credit: paper PMC6534253
